Values were extracted from paper PMC5977113.

Listed next: entries and their corresponding activity at 10 µM.
Test system: TEAD transcriptional activity
Procedure summary: TEAD luciferase reporter assay in transfected HEK293T cells
Assay type: cell-based
Run parameters: Homo sapiens, HEK-293T; HEK293T cells, 10 μM compound, 24 h post transfection; read-out: % Luciferase Activity (residual)
Text: Fitting of the binding curves by a linear Kd model (Figure 4B) led to a better appreciation of the saturation phase for hits 1 and 2 than by the Kd model (Figure 4A). […] Firstly, we measured the TEAD transcriptional activity in transfected HEK293T cells in the presence of our compounds using a TEAD reporter construct. A luciferase reporter is placed downstream of TEAD sites; therefore, the expression level of luciferase correlates with TEAD transcriptional activity. […]
Measured metric: activity at 10 µM

• O=C(O)c1cccnc1Nc1cccc(C(F)(F)F)c1 [Niflumic acid, niflumic acid, reference compound] = 86%
• O=C1NN(c2ccc(Br)cc2)C(=O)/C1=C\c1ccc(O)c([N+](=O)[O-])c1 [Compound 1] = 103%
• Nc1nc2c(nc(N3CCCCC3)n2C2OC(CO)C(O)C2O)c(=O)[nH]1 (centres unmarked) [Compound 4] = 100%
• Cc1c(C(=O)N/N=C2\C(=O)Nc3ccccc32)nnn1-c1nonc1N [Compound 5] = 86%
• Cc1c(C(N)=O)nnn1-c1nonc1N [Compound 7] = 94%
